Value source: patent US7569578B2

target-entity: Human CGRP1 Receptor (Homo sapiens, UniProt O60894+Q16602)
Construct: endogenous in cells; host or cells: SK-N-MC cells (membrane homogenate)
Sequence (Q16602 23-461): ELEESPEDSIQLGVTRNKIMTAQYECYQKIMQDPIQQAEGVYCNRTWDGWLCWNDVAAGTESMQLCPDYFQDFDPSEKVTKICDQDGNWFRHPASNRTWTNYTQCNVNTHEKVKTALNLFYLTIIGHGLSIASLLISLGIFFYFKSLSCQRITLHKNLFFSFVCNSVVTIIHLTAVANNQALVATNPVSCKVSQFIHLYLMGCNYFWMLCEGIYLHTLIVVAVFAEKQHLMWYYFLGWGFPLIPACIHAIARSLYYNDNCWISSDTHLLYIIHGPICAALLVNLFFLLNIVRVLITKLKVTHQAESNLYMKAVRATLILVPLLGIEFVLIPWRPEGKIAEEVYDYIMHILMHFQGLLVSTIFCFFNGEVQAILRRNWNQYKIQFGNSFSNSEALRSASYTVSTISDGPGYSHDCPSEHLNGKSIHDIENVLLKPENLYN
Sequence (O60894 27-148): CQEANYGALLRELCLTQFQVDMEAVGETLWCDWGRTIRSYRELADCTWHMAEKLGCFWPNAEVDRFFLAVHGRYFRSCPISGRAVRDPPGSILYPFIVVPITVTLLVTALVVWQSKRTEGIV
protocol: CGRP Binding Assay ([125I]-CGRP radioligand displacement, SK-N-MC membrane homogenate)
test-parameters: [125I]-CGRP displacement, SK-N-MC homogenate, room temperature 2 h; read-out: Human CGRP1 Receptor IC50

compound	IC50
Cc1cc(CC(OC(=O)N2CCC(N3Cc4cccc(F)c4NC3=O)CC2)c2cccc(Cc3cc(F)cc(F)c3)n2)cc2cn[nH]c12 (racemic) [Example 44]	< 10 nM
CCc1cc(CC(NC(=O)N2CCC(N3Cc4ccccc4NC3=O)CC2)c2nnn(CCc3ccccc3)n2)cc2c(C)n[nH]c12 (racemic) [Example 16]	10 to 100 nM
Cc1cc(C)nc(C(Cc2cc(C)c3[nH]ncc3c2)OC(=O)N2CCC(N3Cc4cccc(F)c4NC3=O)CC2)n1 (stereo not shown) [Example 63]	100 to 1000 nM
Cc1ccc(C(CC(=O)N2CCC(N3Cc4ccccc4NC3=O)CC2)Cc2cc(C)c3[nH]ncc3c2)nc1 (racemic) [Example 26]	10 to 100 nM
Cc1cc(CC(OC(=O)N2CCC(N3Cc4ccccc4NC3=O)CC2)c2cccnc2)cc2cn[nH]c12 (stereo not shown) [Example 58]	100 to 1000 nM
Cc1cc(CC(NC(=O)N2CCC(N3Cc4ccccc4NC3=O)CC2)c2cc(F)ccn2)cc2cn[nH]c12 (racemic) [Example 33]	< 10 nM
Cc1cc(C[C@@H](NC(=O)N2CCC(N3Cc4ccccc4NC3=O)CC2)c2ncc3ccccn23)cc2cn[nH]c12 [Example 85]	< 10 nM
Cc1cc(CC(OC(=O)N2CCC(N3Cc4ccccc4NC3=O)CC2)c2cccc(=O)[nH]2)cc2cn[nH]c12 (racemic) [Example 42]	100 to 1000 nM
Cc1cc(CC(NC(=O)N2CCC(N3Cc4cccc(F)c4NC3=O)CC2)c2nnnn2CC2CCNCC2)cc2cn[nH]c12 (racemic) [Example 81]	< 10 nM
Cc1cc(C[C@@H](OC(=O)N2CCC(c3cc4ccccc4[nH]c3=O)CC2)c2nccn2Cc2cc(F)cc(F)c2)cc2cn[nH]c12 [Example 78]	< 10 nM
Cc1cc(CC(NC(=O)N2CCC(N3Cc4ccccc4NC3=O)CC2)c2nccn2Cc2cccc(F)c2)cc2cn[nH]c12 (racemic) [Example 68]	< 10 nM
Cc1cc(CC(NC(=O)N2CCC(N3Cc4ccccc4NC3=O)CC2)c2cc3ccccc3cn2)cc2cn[nH]c12 (stereo not shown) [Example 50]	< 10 nM
Cc1cc(CC(OC(=O)N2CCC(N3Cc4ccccc4NC3=O)CC2)c2cccc(Br)n2)cc2cn[nH]c12 (racemic) [Example 40]	< 10 nM
